target_desc: Voltage-dependent L-type calcium channel subunit alpha-1C (Homo sapiens)
Sequence (Q13936 whole entry): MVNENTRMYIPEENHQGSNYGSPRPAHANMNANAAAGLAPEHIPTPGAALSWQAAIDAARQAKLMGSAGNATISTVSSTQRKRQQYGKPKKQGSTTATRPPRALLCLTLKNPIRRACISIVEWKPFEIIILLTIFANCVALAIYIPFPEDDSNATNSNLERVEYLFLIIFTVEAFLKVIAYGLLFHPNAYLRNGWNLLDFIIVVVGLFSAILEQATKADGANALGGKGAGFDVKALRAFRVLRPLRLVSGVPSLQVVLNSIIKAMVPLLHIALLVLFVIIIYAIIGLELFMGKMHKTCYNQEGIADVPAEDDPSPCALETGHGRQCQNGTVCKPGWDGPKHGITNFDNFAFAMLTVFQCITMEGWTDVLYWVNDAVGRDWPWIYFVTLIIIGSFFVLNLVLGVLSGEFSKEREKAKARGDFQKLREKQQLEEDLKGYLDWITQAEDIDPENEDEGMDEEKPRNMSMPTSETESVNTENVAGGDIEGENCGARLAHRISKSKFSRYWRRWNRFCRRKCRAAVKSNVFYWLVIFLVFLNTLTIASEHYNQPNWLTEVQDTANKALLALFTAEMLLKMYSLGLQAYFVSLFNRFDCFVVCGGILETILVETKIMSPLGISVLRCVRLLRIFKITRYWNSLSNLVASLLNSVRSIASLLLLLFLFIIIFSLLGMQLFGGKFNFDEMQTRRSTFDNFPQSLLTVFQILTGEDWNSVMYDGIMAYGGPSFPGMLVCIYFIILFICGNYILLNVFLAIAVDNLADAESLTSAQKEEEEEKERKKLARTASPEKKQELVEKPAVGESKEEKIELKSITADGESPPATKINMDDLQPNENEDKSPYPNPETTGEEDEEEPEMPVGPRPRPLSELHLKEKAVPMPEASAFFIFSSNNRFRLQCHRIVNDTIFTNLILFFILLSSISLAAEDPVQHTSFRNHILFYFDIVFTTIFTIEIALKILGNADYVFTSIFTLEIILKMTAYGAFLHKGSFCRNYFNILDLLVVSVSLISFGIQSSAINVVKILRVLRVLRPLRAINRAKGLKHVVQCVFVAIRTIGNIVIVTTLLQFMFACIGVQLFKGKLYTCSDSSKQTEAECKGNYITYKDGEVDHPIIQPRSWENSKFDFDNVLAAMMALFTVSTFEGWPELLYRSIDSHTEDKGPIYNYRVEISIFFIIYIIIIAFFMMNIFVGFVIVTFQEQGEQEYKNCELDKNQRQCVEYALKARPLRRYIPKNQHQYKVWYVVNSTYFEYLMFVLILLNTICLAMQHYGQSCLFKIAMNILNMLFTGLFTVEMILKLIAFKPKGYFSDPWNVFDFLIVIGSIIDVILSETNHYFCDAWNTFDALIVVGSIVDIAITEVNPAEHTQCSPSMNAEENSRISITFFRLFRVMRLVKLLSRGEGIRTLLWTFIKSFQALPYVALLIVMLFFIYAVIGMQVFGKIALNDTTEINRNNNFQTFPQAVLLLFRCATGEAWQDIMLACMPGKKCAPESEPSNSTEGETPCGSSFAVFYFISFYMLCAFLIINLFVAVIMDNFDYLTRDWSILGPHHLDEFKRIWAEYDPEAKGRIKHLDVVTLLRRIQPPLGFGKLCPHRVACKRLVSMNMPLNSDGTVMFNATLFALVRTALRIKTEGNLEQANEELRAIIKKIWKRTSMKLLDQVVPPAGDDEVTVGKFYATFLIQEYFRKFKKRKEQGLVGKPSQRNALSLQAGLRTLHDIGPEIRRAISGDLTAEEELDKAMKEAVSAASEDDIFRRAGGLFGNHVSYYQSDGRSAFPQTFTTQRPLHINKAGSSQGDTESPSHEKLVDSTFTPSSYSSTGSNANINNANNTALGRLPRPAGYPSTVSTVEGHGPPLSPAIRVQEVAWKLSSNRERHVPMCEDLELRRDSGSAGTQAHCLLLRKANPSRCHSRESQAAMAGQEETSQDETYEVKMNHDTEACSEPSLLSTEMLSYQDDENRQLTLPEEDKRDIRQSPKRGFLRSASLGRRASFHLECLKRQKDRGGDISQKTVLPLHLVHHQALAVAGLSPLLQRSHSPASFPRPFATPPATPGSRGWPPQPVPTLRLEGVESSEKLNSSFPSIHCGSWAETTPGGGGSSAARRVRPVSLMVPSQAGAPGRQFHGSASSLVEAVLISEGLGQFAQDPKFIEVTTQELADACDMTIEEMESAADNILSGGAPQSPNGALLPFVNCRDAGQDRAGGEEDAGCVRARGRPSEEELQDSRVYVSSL
assay_info: CAV1.2 Eurofins SafetyScreen (Other)
Design: species or system Blocker
pIC50: −log10 of the molar value.
property: pIC50

Given Cc1cn([C@H](C)CC#N)c(=O)c2cc(Cn3nc(C(F)F)cc3Cl)nn12 , respond with its pIC50.
< 5.00
